Let's look at some compounds and their measured pIC50.
target: Phosphatidylinositol 4,5-bisphosphate 3-kinase catalytic subunit delta isoform (Homo sapiens, UniProt O00329); assay: Inhibition of human PI3K-delta using PIP2 as substrate in presence of gamma[32P]ATP
Sequence (O00329 whole entry, canonical isoform): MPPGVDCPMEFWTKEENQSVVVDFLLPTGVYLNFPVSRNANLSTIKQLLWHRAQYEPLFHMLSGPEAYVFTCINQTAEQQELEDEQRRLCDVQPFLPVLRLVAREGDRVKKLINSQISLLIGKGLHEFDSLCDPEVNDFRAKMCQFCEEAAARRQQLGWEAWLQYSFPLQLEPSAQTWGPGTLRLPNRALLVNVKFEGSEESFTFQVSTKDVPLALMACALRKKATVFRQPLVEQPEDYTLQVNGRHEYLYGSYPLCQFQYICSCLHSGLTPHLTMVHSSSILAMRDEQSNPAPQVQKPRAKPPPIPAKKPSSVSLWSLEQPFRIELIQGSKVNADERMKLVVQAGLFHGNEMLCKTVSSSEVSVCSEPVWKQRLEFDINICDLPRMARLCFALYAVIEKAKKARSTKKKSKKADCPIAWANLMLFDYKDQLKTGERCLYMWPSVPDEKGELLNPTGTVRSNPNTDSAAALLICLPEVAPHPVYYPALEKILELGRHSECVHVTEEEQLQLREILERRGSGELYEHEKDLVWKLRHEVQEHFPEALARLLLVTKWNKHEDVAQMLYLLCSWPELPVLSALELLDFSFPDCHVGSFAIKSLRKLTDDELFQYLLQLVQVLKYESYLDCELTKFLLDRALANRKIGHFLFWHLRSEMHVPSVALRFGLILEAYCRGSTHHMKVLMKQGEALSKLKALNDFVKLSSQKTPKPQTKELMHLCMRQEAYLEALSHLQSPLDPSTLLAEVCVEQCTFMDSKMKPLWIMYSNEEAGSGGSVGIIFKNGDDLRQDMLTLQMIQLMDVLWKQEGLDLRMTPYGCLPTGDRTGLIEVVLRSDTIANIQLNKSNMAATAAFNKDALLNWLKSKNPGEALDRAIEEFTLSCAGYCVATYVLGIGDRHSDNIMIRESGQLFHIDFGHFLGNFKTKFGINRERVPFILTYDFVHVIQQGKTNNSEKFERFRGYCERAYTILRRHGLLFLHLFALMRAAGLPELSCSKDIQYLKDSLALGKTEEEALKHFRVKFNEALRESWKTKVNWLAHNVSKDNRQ
Scale note: pIC50 = -log10(concentration in M).

- Compound: "CCC(Nc1ncnc2[nH]cnc12)c1nc2cccc(C)c2c(=O)n1-c1cc(F)cc(F)c1 (stereo not drawn)"
  pIC50: 7.92
- Compound: "CC[C@H](Nc1ncnc2[nH]cnc12)c1nc2cccc(Cl)c2c(=O)n1-c1cc(F)cc(F)c1"
  pIC50: 7.35

Next:
Please fill in: pIC50 reported for CCC(Nc1ncnc2[nH]cnc12)c1nc2cccc(Cl)c2c(=O)n1-c1c(F)cccc1F (stereo not drawn) = 7.59

----------
experiment: Antiproliferative activity against HUVEC cells assessed as cell growth inhibition measured after 72 hrs by crystal violet staining based analysis; type: toxicity; settings: human
Measured metric: EC50 at 72 h (nM)
State just the number; it will be interpreted in nM.

Here is how some molecules turned out for EC50 at 72 h.
- Smiles: "CC[C@@H](CO)Nc1nc(NCc2cccc(OC)c2O)c2ncn(C(C)C)c2n1"
  Reported: 2850
- Smiles: "CC[C@H](CO)Nc1nc(NCc2cccc(OC)c2O)c2ncn(C(C)C)c2n1"
  Reported: 7120

Please fill in: EC50 at 72 h reported for CC[C@@H](CO)Nc1nc(NCc2ccccc2O)c2ncn(C(C)C)c2n1 = 1590

----------
Let's look at some compounds and their measured IC50.
molecular target: Cyclin-dependent kinase 2/cyclin E (Homo sapiens); test: Inhibition of CDK2/Cyclin E (unknown origin) using histone as substrate incubated for 30 mins in presence of gamma[33P]ATP by digital imaging analysis
State just the number; it will be interpreted in nM.

- Compound: "COc1cccc(CNc2nc(NC3CCC(N)CC3)nc3c2ncn3C(C)C)c1O (configuration not stated)"
  System under test: "Cyclin-dependent kinase 2/cyclin E (Homo sapiens)"
  IC50 / nM: 20

Please fill in: IC50 reported for CC(C)n1cnc2c(NCc3cc(F)ccc3O)nc(NC3CCC(N)CC3)nc21 (configuration not stated) = 20

----------
target: CDK9/Cyclin T (Homo sapiens); test: Inhibition of CDK9/Cyclin T (unknown origin) using (YSPTSPS)3 peptide as substrate incubated for 30 mins in presence of gamma[33P]ATP by digital imaging analysis
Sequence (O60563 whole entry): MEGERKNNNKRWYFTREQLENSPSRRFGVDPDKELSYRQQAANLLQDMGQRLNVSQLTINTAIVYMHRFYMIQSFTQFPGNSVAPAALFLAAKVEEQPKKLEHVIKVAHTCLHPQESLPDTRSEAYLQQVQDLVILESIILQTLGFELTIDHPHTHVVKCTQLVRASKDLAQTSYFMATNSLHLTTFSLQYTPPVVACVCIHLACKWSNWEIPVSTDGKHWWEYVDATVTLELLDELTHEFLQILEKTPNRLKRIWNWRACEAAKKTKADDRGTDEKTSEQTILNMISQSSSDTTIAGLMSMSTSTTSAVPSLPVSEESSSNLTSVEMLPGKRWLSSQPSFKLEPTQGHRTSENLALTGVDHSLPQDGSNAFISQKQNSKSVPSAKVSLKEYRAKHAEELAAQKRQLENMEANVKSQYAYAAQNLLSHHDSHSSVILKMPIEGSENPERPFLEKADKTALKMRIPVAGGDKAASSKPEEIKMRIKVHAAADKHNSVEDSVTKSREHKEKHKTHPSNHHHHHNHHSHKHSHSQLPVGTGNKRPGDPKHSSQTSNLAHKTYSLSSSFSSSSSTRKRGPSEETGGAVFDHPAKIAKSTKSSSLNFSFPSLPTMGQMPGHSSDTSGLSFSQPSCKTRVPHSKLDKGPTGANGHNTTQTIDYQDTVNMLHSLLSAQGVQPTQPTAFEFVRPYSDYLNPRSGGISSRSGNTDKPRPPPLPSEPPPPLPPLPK
Sequence (P50750 whole entry): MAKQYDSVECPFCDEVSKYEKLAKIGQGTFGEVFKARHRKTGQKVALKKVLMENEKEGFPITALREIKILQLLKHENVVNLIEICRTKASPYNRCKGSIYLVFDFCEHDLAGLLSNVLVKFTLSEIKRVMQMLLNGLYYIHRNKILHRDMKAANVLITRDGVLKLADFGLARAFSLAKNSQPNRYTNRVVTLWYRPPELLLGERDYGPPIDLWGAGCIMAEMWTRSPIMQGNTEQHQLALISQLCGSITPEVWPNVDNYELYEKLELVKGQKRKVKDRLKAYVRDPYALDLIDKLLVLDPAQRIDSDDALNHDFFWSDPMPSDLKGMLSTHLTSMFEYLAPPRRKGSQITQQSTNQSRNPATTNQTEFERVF
Sequence (O60583 whole entry, further chain): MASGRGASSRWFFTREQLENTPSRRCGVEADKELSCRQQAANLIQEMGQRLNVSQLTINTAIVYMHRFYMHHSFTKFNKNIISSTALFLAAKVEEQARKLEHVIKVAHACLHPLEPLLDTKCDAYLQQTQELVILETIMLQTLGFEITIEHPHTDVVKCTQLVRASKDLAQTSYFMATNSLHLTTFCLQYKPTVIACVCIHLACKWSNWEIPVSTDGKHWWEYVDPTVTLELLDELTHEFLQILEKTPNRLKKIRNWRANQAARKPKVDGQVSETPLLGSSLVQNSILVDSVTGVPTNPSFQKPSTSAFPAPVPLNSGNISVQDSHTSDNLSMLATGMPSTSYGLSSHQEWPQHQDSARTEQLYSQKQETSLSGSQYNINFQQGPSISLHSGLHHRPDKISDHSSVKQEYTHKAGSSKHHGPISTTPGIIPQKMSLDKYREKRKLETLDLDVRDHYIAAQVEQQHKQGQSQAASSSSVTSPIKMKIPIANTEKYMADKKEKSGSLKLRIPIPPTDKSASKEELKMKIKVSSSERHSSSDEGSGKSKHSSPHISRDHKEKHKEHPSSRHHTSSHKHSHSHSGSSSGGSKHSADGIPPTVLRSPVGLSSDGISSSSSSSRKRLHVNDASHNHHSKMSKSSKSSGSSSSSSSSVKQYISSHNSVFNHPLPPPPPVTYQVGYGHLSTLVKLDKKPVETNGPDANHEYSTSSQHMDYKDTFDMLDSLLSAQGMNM
Measured metric: pIC50
Scale note: pIC50 = -log10(concentration in M).

Here is how some compounds turned out for pIC50.
- Compound: "CCC(CO)Nc1nc(NCc2cc(C)ccc2O)c2ncn(C(C)C)c2n1 (centres undefined)"
  pIC50: 8.22
- Compound: "COc1cccc(CNc2nc(NC3CCCCC3N)nc3c2ncn3C(C)C)c1O (centres undefined)"
  pIC50: 8.15
- Compound: "COc1cccc(CNc2nc(NC3CCC(N)CC3)nc3c2ncn3C(C)C)c1O (centres undefined)"
  pIC50: 8.05

Next:
Please fill in: pIC50 reported for CC(C)n1cnc2c(NCc3cc(F)ccc3O)nc(NC3CCC(N)CC3)nc21 (centres undefined) = 8.10

----------
Let's look at some compounds and their measured pIC50.
target: Phosphatidylinositol 4,5-bisphosphate 3-kinase catalytic subunit alpha isoform (Homo sapiens, UniProt P42336); test: Inhibition of PI3K-p110alpha (unknown origin) incubated for 30 mins by fluorescence polarization assay
Sequence (P42336 whole entry, canonical isoform): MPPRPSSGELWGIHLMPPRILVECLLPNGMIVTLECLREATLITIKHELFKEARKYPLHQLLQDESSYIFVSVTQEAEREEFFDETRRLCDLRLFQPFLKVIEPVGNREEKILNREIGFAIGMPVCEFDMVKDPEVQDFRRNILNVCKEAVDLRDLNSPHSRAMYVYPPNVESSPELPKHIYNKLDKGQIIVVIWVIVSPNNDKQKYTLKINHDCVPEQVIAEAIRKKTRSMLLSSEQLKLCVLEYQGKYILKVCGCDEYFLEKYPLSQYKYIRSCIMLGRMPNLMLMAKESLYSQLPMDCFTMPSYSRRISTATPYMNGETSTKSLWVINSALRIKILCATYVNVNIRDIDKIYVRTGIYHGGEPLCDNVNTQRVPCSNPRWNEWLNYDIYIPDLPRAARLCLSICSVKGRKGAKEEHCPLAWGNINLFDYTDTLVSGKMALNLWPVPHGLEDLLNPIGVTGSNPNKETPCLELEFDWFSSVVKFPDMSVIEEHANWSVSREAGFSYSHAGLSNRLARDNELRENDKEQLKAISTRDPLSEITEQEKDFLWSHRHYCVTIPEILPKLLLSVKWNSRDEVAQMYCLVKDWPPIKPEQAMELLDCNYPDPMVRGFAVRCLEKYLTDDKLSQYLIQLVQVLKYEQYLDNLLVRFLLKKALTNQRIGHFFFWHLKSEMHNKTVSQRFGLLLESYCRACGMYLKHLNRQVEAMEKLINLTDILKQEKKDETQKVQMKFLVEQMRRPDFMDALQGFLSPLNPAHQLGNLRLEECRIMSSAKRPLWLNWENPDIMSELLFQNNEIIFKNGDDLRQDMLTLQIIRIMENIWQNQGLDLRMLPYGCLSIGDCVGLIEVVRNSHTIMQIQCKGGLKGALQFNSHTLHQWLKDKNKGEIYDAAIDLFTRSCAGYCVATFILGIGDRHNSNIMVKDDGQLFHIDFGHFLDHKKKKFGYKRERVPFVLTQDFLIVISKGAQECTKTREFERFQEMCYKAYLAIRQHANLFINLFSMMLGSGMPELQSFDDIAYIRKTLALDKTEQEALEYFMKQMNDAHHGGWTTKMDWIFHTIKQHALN
pIC50: −log10 of the molar value.

Please fill in: pIC50 reported for Cc1nc(N)ncc1-c1nc(N2CCOCC2)c2nc(C(C)(C)C)n(CCO)c2n1 = > 8.00

Please fill in: pIC50 reported for CC(C)(C)c1nc2c(N3CCOCC3)nc(-c3cccc4[nH]ccc34)nc2n1CCO = > 8.00
